- System: RARa homodimer (NR concentration 270 nM)
- PROTOCOL_TEXT: PBM binding z-score (relative to random genomic background probes); higher = stronger binding; sequences stand for … in GC…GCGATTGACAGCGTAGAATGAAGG
Reported PBM binding z-score is given for each of the following sequences.
MEASURE: PBM binding z-score

SEQUENCE_STRING	RECORDED_NUMBER
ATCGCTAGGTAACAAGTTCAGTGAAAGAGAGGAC	-0.284
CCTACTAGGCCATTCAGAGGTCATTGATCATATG	1.44
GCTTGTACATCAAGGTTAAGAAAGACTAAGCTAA	0.262
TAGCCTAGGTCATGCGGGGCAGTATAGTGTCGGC	-0.595
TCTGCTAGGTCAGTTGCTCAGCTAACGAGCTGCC	-1.62
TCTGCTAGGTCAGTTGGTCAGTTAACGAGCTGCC	-1.15
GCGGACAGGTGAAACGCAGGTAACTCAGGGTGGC	-1.07
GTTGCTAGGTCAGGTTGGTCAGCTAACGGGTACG	0.798
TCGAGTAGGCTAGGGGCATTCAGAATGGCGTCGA	-1
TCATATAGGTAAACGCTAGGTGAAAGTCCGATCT	0.619
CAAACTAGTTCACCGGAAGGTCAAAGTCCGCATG	1.73
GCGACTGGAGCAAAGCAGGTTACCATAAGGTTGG	-0.65

----------
Reported PBM binding z-score is given for each of the following sequences.
- Test system: VDR:RXRa (NR concentration 270 nM, RXRa partner concentration 90 nM)
- PROTOCOL_TEXT: PBM binding z-score (relative to random genomic background probes); higher = stronger binding; sequences stand for … in GC…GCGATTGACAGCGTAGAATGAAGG

SEQUENCE_STRING	ASSAYED_SYSTEM	PBM binding z-score
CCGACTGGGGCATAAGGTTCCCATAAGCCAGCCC	VDR:RXRa (NR concentration 270 nM, RXRa partner concentration 90 nM)	-0.0761
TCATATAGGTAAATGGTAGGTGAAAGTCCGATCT	VDR:RXRa (NR concentration 270 nM, RXRa partner concentration 90 nM)	1.16
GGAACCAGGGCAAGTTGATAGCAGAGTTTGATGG	VDR:RXRa (NR concentration 270 nM, RXRa partner concentration 90 nM)	0.319
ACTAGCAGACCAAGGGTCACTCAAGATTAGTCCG	VDR:RXRa (NR concentration 270 nM, RXRa partner concentration 90 nM)	2.58
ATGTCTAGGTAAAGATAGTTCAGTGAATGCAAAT	VDR:RXRa (NR concentration 270 nM, RXRa partner concentration 90 nM)	0.565
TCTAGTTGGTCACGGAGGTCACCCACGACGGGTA	VDR:RXRa (NR concentration 270 nM, RXRa partner concentration 90 nM)	5.63
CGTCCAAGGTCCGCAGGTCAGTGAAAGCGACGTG	VDR:RXRa (NR concentration 270 nM, RXRa partner concentration 90 nM)	-0.111
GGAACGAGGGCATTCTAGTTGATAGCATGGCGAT	VDR:RXRa (NR concentration 270 nM, RXRa partner concentration 90 nM)	1.81
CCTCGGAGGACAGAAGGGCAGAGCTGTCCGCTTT	VDR:RXRa (NR concentration 270 nM, RXRa partner concentration 90 nM)	-0.902
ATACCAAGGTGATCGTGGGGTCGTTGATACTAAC	VDR:RXRa (NR concentration 270 nM, RXRa partner concentration 90 nM)	3.44
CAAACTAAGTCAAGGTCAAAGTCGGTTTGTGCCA	VDR:RXRa (NR concentration 270 nM, RXRa partner concentration 90 nM)	4.62
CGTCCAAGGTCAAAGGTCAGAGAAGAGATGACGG	VDR:RXRa (NR concentration 270 nM, RXRa partner concentration 90 nM)	6.75
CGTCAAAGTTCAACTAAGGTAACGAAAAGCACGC	VDR:RXRa (NR concentration 270 nM, RXRa partner concentration 90 nM)	4.64
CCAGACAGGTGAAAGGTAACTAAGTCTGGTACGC	VDR:RXRa (NR concentration 270 nM, RXRa partner concentration 90 nM)	0.397
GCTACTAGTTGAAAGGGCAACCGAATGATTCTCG	VDR:RXRa (NR concentration 270 nM, RXRa partner concentration 90 nM)	0.234
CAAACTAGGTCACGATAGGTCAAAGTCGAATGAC	VDR:RXRa (NR concentration 270 nM, RXRa partner concentration 90 nM)	5.51
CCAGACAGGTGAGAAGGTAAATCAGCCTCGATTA	VDR:RXRa (NR concentration 270 nM, RXRa partner concentration 90 nM)	-0.13
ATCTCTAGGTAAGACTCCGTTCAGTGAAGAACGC	VDR:RXRa (NR concentration 270 nM, RXRa partner concentration 90 nM)	0.0228
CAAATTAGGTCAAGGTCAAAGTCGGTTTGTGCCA	VDR:RXRa (NR concentration 270 nM, RXRa partner concentration 90 nM)	5.33
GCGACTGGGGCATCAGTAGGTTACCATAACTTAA	VDR:RXRa (NR concentration 270 nM, RXRa partner concentration 90 nM)	-0.141
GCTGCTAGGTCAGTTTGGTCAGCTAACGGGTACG	VDR:RXRa (NR concentration 270 nM, RXRa partner concentration 90 nM)	0.529
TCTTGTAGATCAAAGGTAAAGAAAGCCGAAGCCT	VDR:RXRa (NR concentration 270 nM, RXRa partner concentration 90 nM)	0.385
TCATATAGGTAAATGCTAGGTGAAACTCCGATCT	VDR:RXRa (NR concentration 270 nM, RXRa partner concentration 90 nM)	0.855
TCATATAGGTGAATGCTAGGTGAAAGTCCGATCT	VDR:RXRa (NR concentration 270 nM, RXRa partner concentration 90 nM)	0.699
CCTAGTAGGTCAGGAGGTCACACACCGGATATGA	VDR:RXRa (NR concentration 270 nM, RXRa partner concentration 90 nM)	4.92
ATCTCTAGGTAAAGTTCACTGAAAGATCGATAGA	VDR:RXRa (NR concentration 270 nM, RXRa partner concentration 90 nM)	2.89
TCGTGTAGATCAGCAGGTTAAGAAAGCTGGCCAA	VDR:RXRa (NR concentration 270 nM, RXRa partner concentration 90 nM)	0.0438
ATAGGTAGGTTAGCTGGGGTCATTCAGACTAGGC	VDR:RXRa (NR concentration 270 nM, RXRa partner concentration 90 nM)	6.28
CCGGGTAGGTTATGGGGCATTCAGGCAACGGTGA	VDR:RXRa (NR concentration 270 nM, RXRa partner concentration 90 nM)	0.056
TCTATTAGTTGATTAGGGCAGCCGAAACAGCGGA	VDR:RXRa (NR concentration 270 nM, RXRa partner concentration 90 nM)	0.607
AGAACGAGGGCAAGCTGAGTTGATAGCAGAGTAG	VDR:RXRa (NR concentration 270 nM, RXRa partner concentration 90 nM)	1.37
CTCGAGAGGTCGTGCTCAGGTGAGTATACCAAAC	VDR:RXRa (NR concentration 270 nM, RXRa partner concentration 90 nM)	3.37
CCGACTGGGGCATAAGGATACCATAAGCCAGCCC	VDR:RXRa (NR concentration 270 nM, RXRa partner concentration 90 nM)	-0.657
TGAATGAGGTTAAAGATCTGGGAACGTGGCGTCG	VDR:RXRa (NR concentration 270 nM, RXRa partner concentration 90 nM)	1.31
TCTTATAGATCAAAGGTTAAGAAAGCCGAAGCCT	VDR:RXRa (NR concentration 270 nM, RXRa partner concentration 90 nM)	2.27
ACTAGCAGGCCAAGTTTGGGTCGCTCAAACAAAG	VDR:RXRa (NR concentration 270 nM, RXRa partner concentration 90 nM)	-0.328
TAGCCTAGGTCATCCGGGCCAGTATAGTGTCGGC	VDR:RXRa (NR concentration 270 nM, RXRa partner concentration 90 nM)	3.81
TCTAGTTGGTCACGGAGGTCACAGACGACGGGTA	VDR:RXRa (NR concentration 270 nM, RXRa partner concentration 90 nM)	5.81
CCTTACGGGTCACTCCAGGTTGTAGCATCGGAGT	VDR:RXRa (NR concentration 270 nM, RXRa partner concentration 90 nM)	3.62
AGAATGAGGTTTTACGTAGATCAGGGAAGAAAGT	VDR:RXRa (NR concentration 270 nM, RXRa partner concentration 90 nM)	-0.19
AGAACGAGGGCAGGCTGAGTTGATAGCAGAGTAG	VDR:RXRa (NR concentration 270 nM, RXRa partner concentration 90 nM)	0.431
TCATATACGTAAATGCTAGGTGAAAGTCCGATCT	VDR:RXRa (NR concentration 270 nM, RXRa partner concentration 90 nM)	0.839
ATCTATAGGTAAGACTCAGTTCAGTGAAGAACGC	VDR:RXRa (NR concentration 270 nM, RXRa partner concentration 90 nM)	0.866
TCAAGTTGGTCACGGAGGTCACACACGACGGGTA	VDR:RXRa (NR concentration 270 nM, RXRa partner concentration 90 nM)	5.67
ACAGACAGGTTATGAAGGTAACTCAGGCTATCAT	VDR:RXRa (NR concentration 270 nM, RXRa partner concentration 90 nM)	1.3
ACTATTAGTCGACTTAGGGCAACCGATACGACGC	VDR:RXRa (NR concentration 270 nM, RXRa partner concentration 90 nM)	-0.299
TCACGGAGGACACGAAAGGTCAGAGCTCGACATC	VDR:RXRa (NR concentration 270 nM, RXRa partner concentration 90 nM)	3.47
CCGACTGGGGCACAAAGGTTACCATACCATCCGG	VDR:RXRa (NR concentration 270 nM, RXRa partner concentration 90 nM)	1.73
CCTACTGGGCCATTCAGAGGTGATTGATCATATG	VDR:RXRa (NR concentration 270 nM, RXRa partner concentration 90 nM)	-0.104
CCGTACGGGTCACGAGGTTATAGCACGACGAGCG	VDR:RXRa (NR concentration 270 nM, RXRa partner concentration 90 nM)	5.23
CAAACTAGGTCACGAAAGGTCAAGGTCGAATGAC	VDR:RXRa (NR concentration 270 nM, RXRa partner concentration 90 nM)	6.61

Values from the supplement of paper PMC6555819
